# Test system: NCI/ADR-RES ovarian
# Test Method Notes: NCI-60 one-dose screen, 48 h (100 = growth as untreated, 0 = no growth, -100 = all killed)
# Experimental Conditions: 10 µM unless noted
The panel holds about 83,000 compounds, 20% with a hit somewhere; the sample as a whole holds those more often. Active and inactive are the calls of the source. How the source made its calls: active means growth percent below 10; inactive means the rest.
Some compounds, each annotated with its measured growth.

Examples with their reported growth follow.
- CC(C)(C)c1ccc(OC(=O)Nc2ccccc2)cc1: 106% (inactive)
- CCOC(=O)C#Cc1c(C(=O)OCC)nnn1[C@@H]1O[C@H](COC(C)=O)[C@@H](OC(C)=O)[C@H]1OC(C)=O: 104% (inactive)

input: Kindly indicate its recorded growth. Item: CCOCCNc1ccc(S(=O)(=O)c2ccc(N)cc2)cc1N
output: 100% (inactive)

###

# Test system: M14 melanoma
# Test Method Notes: NCI-60 one-dose screen, 48 h (100 = growth as untreated, 0 = no growth, -100 = all killed)
# Experimental Conditions: 10 µM unless noted
Compounds without any hit were thinned out: in the full panel of roughly 83,000, 20% have a hit.
Quantity: growth (%)
Give a bare numeral; the unit % is implied.

input: Kindly indicate its recorded growth. Item: N=c1nc(N2CCCCC2)cc(N)n1O
output: 123

input: Kindly indicate its recorded growth. Item: CN(C)CCNC(=O)n1cc(-c2ccncc2)c(-c2cc(O)cc(Cl)c2)n1
output: 27.6

input: Kindly indicate its recorded growth. Item: Clc1nnc2c3ccccc3ccn12
output: 106

input: Kindly indicate its recorded growth. Item: C#CCO[C@H]1CC[C@H](OCC#C)[C@@H]2[C@H]1[C@H]1C[C@@H]3[C@@]4(C)CCC[C@@](C)(C(=O)OC)[C@@H]4CC[C@@]23C=C1C(C)C
output: 93.8

###

# Tested on: OVCAR-8 ovarian
# Test Method Notes: NCI-60 one-dose screen, 48 h
# Experimental Conditions: 10 µM unless noted
Compounds without any hit were thinned out: in the full panel of roughly 83,000, 20% have a hit. The source made the active and inactive calls. The calls were made as follows: active = growth percent below 10; inactive = the rest.
Can you answer with just one of these options? Yes = active, No = inactive

- CCCCc1nc(Cl)c(C2CC(c3ccc(S(N)(=O)=O)cc3)=NN2c2ccc(C#N)cc2)[nH]1 (configuration not stated): No
- COc1ccc(Nc2nc(N)nc3c(=O)[nH]ccc23)cc1: No
- N=C(N)c1ccc(-c2ccc(-c3cccs3)s2)cc1F: Yes
- COc1ccc([C@H]2c3[nH]c4ccccc4c3C[C@H]3C(=O)N(CCCCCCC(=O)NO)CC(=O)N23)cc1: No
- CCN1C(=O)N(CC)C2C1NN=c1s/c(=C\c3ccco3)c(=O)n12 (configuration not stated): No
- CC(CN1CCN(CC(C)Nc2ccnc3cc(Cl)ccc23)CC1)Nc1ccnc2cc(Cl)ccc12 (configuration not stated): Yes

input: What was the test verdict on CN1C(=O)C(C2=NNC(c3ccccc3C(=O)O)C2)C(=O)N(C)C1=O (configuration not stated) ?
output: No

input: What was the test verdict on Oc1ccccc1-c1nnc(COc2ccc(Cl)cc2Cl)o1 ?
output: No

input: What was the test verdict on CCN(CC)C(=O)O/N=C(/C)c1ccccc1 ?
output: No

input: What was the test verdict on C#C[C@]1(O)CC[C@H]2[C@@H]3CC=C4c5sc(-c6cccc(Br)c6)nc5CC[C@]4(C)[C@H]3CC[C@@]21C ?
output: No

###

# Tested on: NCI-H322M lung
# Test Method Notes: NCI-60 one-dose screen, 48 h (100 = growth as untreated, 0 = no growth, -100 = all killed)
# Experimental Conditions: 10 µM unless noted
Compounds without any hit were thinned out: in the full panel of roughly 83,000, 20% have a hit.
Label rule, in plain words: growth of 50% and up is Criterion met, under 50% is Criterion not met.

* c1cc2c(cc1-c1cnc3nonc3n1)OCO2 | Criterion met
* CN(C)CCCn1c(=O)c2cc([N+](=O)[O-])ccc2c2cnc3[nH]ccc3c21 | Criterion not met
* CC(=O)Oc1c(Cl)c(Cl)c(Cl)c(Cl)c1Cl | Criterion met
* COc1cnc2c(c1)C(=O)c1c-2n(CCCNC(C)C)c(=O)c2cc(Cl)ccc12 | Criterion not met
* ClC1(Cl)C2CCCCCCC21 (stereo unspecified) | Criterion met

Turning now to a further record.
input: Threshold query (growth >= 50%) on Cc1ccc(C)c2c1SC1=NNC(Oc3ccc(Cl)cc3)=C(C#N)C(=N)N12
output: Criterion met

###

# Tested on: 786-0 renal
# Test Method Notes: NCI-60 one-dose screen, 48 h
# Experimental Conditions: 10 µM unless noted
# Procedure: Cells are grown in 96 well plates and exposed to the test compound for 48 hours. Compounds are tested at a single concentration, which is 10^-5 M for most compounds. The reported endpoint is percent growth (GI% or GIPRCNT), where numbers from 0 - 100% represent growth inhibition, and numbers from -100% - 0 represent cell death. For example, a value of 40 represents 60% growth inhibition. A value of 0 means no net growth occurred over the course of the experiment. […]
The panel holds about 83,000 compounds, 20% with a hit somewhere; the sample as a whole holds those more often. Activity calls are given as the source filed them. Rule for the calls: active = growth percent below 10; inactive = the rest.
Can you answer with just one of these options? 1.0 for active, 0.0 for inactive

* CNC(=O)OC1C(O[C@H]2C[C@H]3[C@@H]4CC=C5C[C@@H](O)CC[C@]5(C)[C@H]4CC[C@]3(C)[C@H]2[C@H](C)C(=O)CCC(C)C)OCC(O)C1OC1OCC(O)C(O)C1OC(=O)c1ccc(OC)cc1 (stereo not given in full) | 1.0

input: What was the test verdict on CC1(C)CN(CCNc2nccc(-c3c(-c4cccc(O)c4)nc4sccn34)n2)S(=O)(=O)N1 ?
output: 0.0

input: What was the test verdict on Cc1csc(N/N=C/c2ccncc2)n1 ?
output: 0.0

input: What was the test verdict on Cc1ccncc1NC=O ?
output: 0.0

input: What was the test verdict on COc1cnc2c(c1)C(=O)c1c-2n(CCCN2CCCC2)c(=O)c2cc(Cl)ccc12 ?
output: 1.0

###

# System: EKVX NSCLC
# Test Method Notes: NCI-60 one-dose screen, 48 h (100 = growth as untreated, 0 = no growth, -100 = all killed)
# Experimental Conditions: 10 µM unless noted
Compounds without any hit were thinned out: in the full panel of roughly 83,000, 20% have a hit.
Kindly apply the following: Condition met if growth is less than 60%, Condition not met in every other case.

// below: answered compounds
* Clc1ccc(-c2cnc3c(-c4ccnc(N5CCNCC5)c4)cnn3c2)cc1 | Condition not met
* CCCCOC(=O)c1cc(O)c(O)c(O)c1 | Condition not met
* COc1ccc2[nH]cc(C3(c4c[nH]c5ccc(OC)cc45)C(=O)Nc4ccc(Cl)cc43)c2c1 | Condition met
* CCn1c(Cc2ccccc2Nc2c(Cl)cccc2Cl)nnc1SCC(=O)Nc1cccc(OC)c1 | Condition not met
* O=C(C(=O)N1CCCC1)c1cn(CCCn2cc(C(=O)C(=O)N3CCCC3)c3cc(Br)ccc32)c2ccc(Br)cc12 | Condition met
* c1ccc(CCn2cccc2)nc1 | Condition not met

input: hey, is growth for COc1cc(-c2nc(-c3ccc(-c4nc5ccc(F)cc5[nH]4)cc3)no2)cc(OC)c1OC lower than 60% or not?
output: Condition met

input: hey, is growth for CN(C)c1ccc(C2(Cl)c3ccccc3N(C)c3ccccc32)cc1 lower than 60% or not?
output: Condition met

input: hey, is growth for CC(=O)O[C@H]1CC[C@]2(C)[C@H]3CC=C4[C@@H]5CC(C)(C)CC[C@]5(C(=O)OCC(COC(=O)C(Cl)Cl)(COC(=O)C(Cl)Cl)NC(=O)C(Cl)Cl)CC[C@@]4(C)[C@]3(C)CC[C@H]2C1(C)C lower than 60% or not?
output: Condition not met

###

Some compounds, each annotated with its measured growth.
# Test system: SK-OV-3 ovarian
# Test Method Notes: NCI-60 one-dose screen, 48 h (100 = growth as untreated, 0 = no growth, -100 = all killed)
# Experimental Conditions: 10 µM unless noted
Compounds without any hit were thinned out: in the full panel of roughly 83,000, 20% have a hit.
Give a bare numeral; the unit % is implied.

Examples with their reported growth follow.
• C[Si](C)(C)C(c1ccccc1)c1ccccc1 = 98.4
• COc1ccc(/C(C)=N/NC(=O)c2ccc(S(C)(=O)=O)cc2)cc1OC = 88.4
• COC(=O)c1ccc2c(c1)nc(-c1ccc(Cl)cc1)n2-c1cc(C(C)(C)C)[nH]n1 = 104
• COc1ccc(/C=C/C(=O)CCC(=O)O)cc1OC = 91
• COc1cc(CN2CCC(N3CCCC3=O)c3ccccc32)cc(OC)c1OC (configuration not stated) = 100
• COc1cc(OC)c2sc(-c3ccc(-n4cncc4-c4ccc(OC)c(N)c4)cc3)nc2c1 = 123

input: Kindly indicate its recorded growth. Item: CC(=O)O[C@@H]1CC2C(C)(C)CCCC2(C)C2=C1C(=O)C(C(C)C)=CC2=O (some centres not stated)
output: 17.2

input: Kindly indicate its recorded growth. Item: O=C(/C=C/c1ccco1)c1ccccc1O
output: 115

input: Kindly indicate its recorded growth. Item: CNC(=O)c1c(NC(=O)c2ccc(C(C)C)cc2)sc2c1CCC(=O)C2
output: -3.87

input: Kindly indicate its recorded growth. Item: CC(C)[C@@]12C[C@@H](OC(=O)[C@H]3CO3)[C@@](C)(O1)[C@@H]1CC[C@@H](C)[C@H]1[C@@H]2OC(=O)/C=C/c1ccccc1
output: 76.5

input: Kindly indicate its recorded growth. Item: O=C1C(Cl)=C(Nc2cccc3ccccc23)C(=O)c2ccccc21
output: 99.1
